measured target: Sodium-dependent serotonin transporter (Homo sapiens, UniProt P31645)
Sequence (P31645 whole entry): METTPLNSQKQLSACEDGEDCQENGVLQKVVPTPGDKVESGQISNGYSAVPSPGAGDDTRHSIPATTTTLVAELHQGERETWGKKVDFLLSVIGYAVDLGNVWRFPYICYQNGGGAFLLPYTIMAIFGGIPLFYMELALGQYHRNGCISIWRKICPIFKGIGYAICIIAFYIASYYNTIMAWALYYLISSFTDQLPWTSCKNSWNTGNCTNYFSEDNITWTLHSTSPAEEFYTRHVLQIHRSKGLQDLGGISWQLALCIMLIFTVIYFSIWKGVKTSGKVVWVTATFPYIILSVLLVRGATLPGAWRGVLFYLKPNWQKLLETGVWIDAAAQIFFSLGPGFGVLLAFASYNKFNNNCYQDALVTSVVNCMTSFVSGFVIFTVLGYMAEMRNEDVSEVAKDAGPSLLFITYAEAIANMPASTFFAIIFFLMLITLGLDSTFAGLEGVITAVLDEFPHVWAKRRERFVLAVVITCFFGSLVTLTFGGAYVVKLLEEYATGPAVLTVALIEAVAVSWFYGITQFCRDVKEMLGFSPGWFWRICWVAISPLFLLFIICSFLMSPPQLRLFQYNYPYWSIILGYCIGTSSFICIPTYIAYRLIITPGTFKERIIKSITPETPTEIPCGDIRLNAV
experimental protocol: Displacement of [3H]-citalopram from human serotonin transporter expressed in HEK 293 cells
Type: cell-based, HEK293
property label: log10(Ki) (log10 of the value in nM)

chemical structure | log10(Ki)
O=C1NCc2cc(F)c(OCCCCN3CCN(c4cccc5ccccc45)CC3)cc21 | 1.49
O=C1NCc2ccc(OCCCN3CCN(c4cccc5ccc(F)cc45)CC3)c(F)c21 | 3.25
O=C1NCc2ccc(OCCCCN3CCN(c4cccc5ccc(F)cc45)CC3)c(F)c21 | 2.41
O=C1NCc2ccc(OCCCN3CCN(c4cccc5cc(F)ccc45)CC3)c(F)c21 | 1.57
O=C1NCc2cc(F)c(OCCCN3CCN(c4cccc5ccccc45)CC3)cc21 | 1.74
O=C1NCc2ccc(OCCCN3CCN(c4cccc5ccccc45)CC3)c(F)c21 | 1.93
O=C1NCc2ccc(OCCCCN3CCN(c4cccc5cccc(F)c45)CC3)cc21 | 1.41
O=C1NCc2ccc(OCCCCN3CCN(c4cccc5cccc(F)c45)CC3)c(F)c21 | 1.76
O=C1NCc2ccc(OCCCCN3CCN(c4cccc5ccccc45)CC3)cc21 | 1.22
O=C1NCc2ccc(OCCCCN3CCN(c4cccc5cc(F)ccc45)CC3)c(F)c21 | 3.43
O=C1NCc2cc(F)c(OCCCN3CCN(c4cccc5cccc(F)c45)CC3)cc21 | 1.19
O=C1NCc2ccc(OCCCN3CCN(c4cccc5cccc(F)c45)CC3)c(F)c21 | 2.20
O=C1NCc2cc(F)c(OCCCCN3CCN(c4cccc5cc(F)ccc45)CC3)cc21 | 0.96
O=C1NCc2cc(F)c(OCCCCN3CCN(c4cccc5cccc(F)c45)CC3)cc21 | 1.02
O=C1NCc2cc(F)c(OCCCCN3CCN(c4cccc5ccc(F)cc45)CC3)cc21 | 2.04
O=C1NCc2ccc(OCCCCN3CCN(c4cccc5ccccc45)CC3)c(F)c21 | 3.40
O=C1NCc2cc(F)c(OCCCN3CCN(c4cccc5cc(F)ccc45)CC3)cc21 | 1.35
O=C1NCc2cc(F)c(OCCCN3CCN(c4cccc5ccc(F)cc45)CC3)cc21 | 1.13
